Reported pEC50 values follow for various compounds
molecular target: soluble guanylate cyclase (sGC) (Homo sapiens, UniProt Q02108+Q02153); construct: endogenously expressing soluble guanylate cyclase (sGC); endogenous in cells; host or cells: HEK293; assay: sGC-HEK-cGMP assay (run with SNP incubation); format: cell-based; settings: in the presence of 10 μM SNP; top of concentration-response curve not fitted to 100%; Table 3E; read-out: HEK assay EC50-unconstrained
Sequence (Q02153 whole entry): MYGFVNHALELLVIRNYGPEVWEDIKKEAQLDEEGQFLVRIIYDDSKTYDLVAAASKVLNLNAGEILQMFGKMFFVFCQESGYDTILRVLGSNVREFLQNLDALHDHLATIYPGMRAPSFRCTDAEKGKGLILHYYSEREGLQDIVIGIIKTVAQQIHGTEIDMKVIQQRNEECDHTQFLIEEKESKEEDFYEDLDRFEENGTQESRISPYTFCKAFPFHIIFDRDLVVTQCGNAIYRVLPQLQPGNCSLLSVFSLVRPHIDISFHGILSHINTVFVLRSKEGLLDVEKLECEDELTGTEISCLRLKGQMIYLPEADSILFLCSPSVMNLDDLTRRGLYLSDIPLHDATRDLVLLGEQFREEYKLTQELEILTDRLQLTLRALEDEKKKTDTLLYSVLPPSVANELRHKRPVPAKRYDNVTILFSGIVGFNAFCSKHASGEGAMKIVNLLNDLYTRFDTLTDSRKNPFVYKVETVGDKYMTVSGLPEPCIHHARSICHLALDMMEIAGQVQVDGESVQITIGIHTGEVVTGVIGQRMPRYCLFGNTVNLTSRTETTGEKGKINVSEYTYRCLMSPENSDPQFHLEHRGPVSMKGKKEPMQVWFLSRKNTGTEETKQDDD
Sequence (Q02108 whole entry): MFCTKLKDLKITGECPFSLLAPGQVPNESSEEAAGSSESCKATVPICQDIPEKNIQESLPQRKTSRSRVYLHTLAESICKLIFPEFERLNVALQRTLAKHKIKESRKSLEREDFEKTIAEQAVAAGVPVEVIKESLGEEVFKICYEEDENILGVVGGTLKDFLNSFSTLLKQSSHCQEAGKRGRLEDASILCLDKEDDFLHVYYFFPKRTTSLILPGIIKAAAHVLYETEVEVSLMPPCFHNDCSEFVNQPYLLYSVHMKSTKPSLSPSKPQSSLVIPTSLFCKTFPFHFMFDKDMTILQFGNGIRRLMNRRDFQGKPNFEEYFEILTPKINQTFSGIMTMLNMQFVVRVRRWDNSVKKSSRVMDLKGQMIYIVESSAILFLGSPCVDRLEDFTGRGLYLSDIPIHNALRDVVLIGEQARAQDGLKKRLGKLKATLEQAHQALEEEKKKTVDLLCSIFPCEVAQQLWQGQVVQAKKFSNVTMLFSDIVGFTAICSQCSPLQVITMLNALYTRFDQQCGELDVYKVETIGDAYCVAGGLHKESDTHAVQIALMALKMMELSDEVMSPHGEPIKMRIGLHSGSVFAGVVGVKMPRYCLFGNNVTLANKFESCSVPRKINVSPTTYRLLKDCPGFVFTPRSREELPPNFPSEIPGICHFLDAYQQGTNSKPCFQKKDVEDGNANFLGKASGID
pEC50: −log10 of the molar value.

Use these answered entries as a reference point.
smilesData	reportedMetric	result
N#Cc1cc(-c2ncc(F)c(=O)[nH]2)nn1Cc1ccccc1F	pEC50	5.30 to 6.00
Nc1ccnc(-c2cc(-c3ccon3)n(Cc3cccc(Cl)c3F)n2)n1	pEC50	6.00 to 6.30
Cc1cccc(Cn2nc(-c3ncc(F)c(O)n3)cc2-c2ccon2)c1F	pEC50	5.30 to 6.00

Quick one: pEC50 for `O=c1ccnc(-c2cc(-c3ccon3)n(Cc3cccc(Cl)c3F)n2)[nH]1` ?
5.30 to 6.00

Quick one: pEC50 for `O=c1[nH]c(-c2cc(-c3ccon3)n(Cc3cccc(Cl)c3F)n2)ncc1F` ?
6.30 to 8.00

Quick one: pEC50 for `O=c1[nH]c(-c2cc(-c3ccon3)n(Cc3ccccc3F)n2)nc(CF)c1F` ?
5.00 to 5.30

Quick one: pEC50 for `Nc1nc(-c2cc(-c3ccon3)n(Cc3cccc(F)c3F)n2)ncc1NC(=O)c1ccc(F)cc1` ?
5.30 to 6.00

Quick one: pEC50 for `O=c1[nH]c(-c2cc(-c3ccon3)n(Cc3ccc(F)cc3F)n2)ncc1F` ?
6.30 to 8.00

---

molecular target: soluble guanylate cyclase (sGC) (Homo sapiens, UniProt Q02108+Q02153); construct: endogenously expressing soluble guanylate cyclase (sGC); endogenous in cells; host or cells: HEK293; assay: sGC-HEK-cGMP assay (run with SNP incubation); format: cell-based; conditions: in the presence of 10 μM SNP; top of concentration-response curve not fitted to 100%; Table 3D; read-out: HEK assay EC50-unconstrained
reportedMetric: EC50

compound	EC50
Oc1nc(-c2cc(-c3ccon3)n(Cc3ccccc3)n2)ncc1F [Compound 41]	500 to 1000 nM
CN(c1ccccc1)S(=O)(=O)c1cnc(-c2cc(-c3ccon3)n(Cc3ccccc3F)n2)[nH]c1=O [Compound 25]	500 to 1000 nM

Please state recorded EC50 (tested on soluble guanylate cyclase (sGC) (Homo sapiens, UniProt Q02108+Q02153)) of NNc1nc(-c2cc(-c3ccon3)n(Cc3ccccc3F)n2)ncc1F [Compound 56]
500 to 1000 nM

Please state recorded EC50 (tested on soluble guanylate cyclase (sGC) (Homo sapiens, UniProt Q02108+Q02153)) of Oc1nc(-c2cc(-c3ccon3)n(Cc3ccccc3F)n2)ncc1Sc1ccc(F)cc1 [Compound 4]
1000 to 5000 nM

Please state recorded EC50 (tested on soluble guanylate cyclase (sGC) (Homo sapiens, UniProt Q02108+Q02153)) of Nc1nc(-c2cc(-c3ccon3)n(Cc3ccccc3F)n2)ncc1NC(=O)C1(c2ccccc2)CC1 [Compound 27]
10 to 500 nM

Please state recorded EC50 (tested on soluble guanylate cyclase (sGC) (Homo sapiens, UniProt Q02108+Q02153)) of O=c1[nH]c(-c2nn(Cc3ccccc3F)c(-c3ccon3)c2F)ncc1F [Compound 3]
10000 to 50000 nM

Please state recorded EC50 (tested on soluble guanylate cyclase (sGC) (Homo sapiens, UniProt Q02108+Q02153)) of Oc1nc(-c2cc(-c3ccon3)n(Cc3ccccc3F)n2)ncc1-c1ccccn1 [Compound 43]
1000 to 5000 nM

Please state recorded EC50 (tested on soluble guanylate cyclase (sGC) (Homo sapiens, UniProt Q02108+Q02153)) of Oc1nc(-c2cc(-c3ccon3)n(Cc3ccccc3F)n2)ncc1Sc1ccccn1 [Compound 18]
10000 to 50000 nM

Please state recorded EC50 (tested on soluble guanylate cyclase (sGC) (Homo sapiens, UniProt Q02108+Q02153)) of O=c1[nH]c(-c2cc(-c3ccon3)n(Cc3ccccc3F)n2)ncc1S(=O)(=O)N1CCCC1 [Compound 21]
500 to 1000 nM

Please state recorded EC50 (tested on soluble guanylate cyclase (sGC) (Homo sapiens, UniProt Q02108+Q02153)) of Nc1nc(-c2cc(-c3ncco3)n(Cc3ccccc3F)n2)ncc1NC(=O)C1(F)CC1 [Compound 31]
1000 to 5000 nM

Please state recorded EC50 (tested on soluble guanylate cyclase (sGC) (Homo sapiens, UniProt Q02108+Q02153)) of CN(C)S(=O)(=O)c1cnc(-c2cc(-c3ccon3)n(Cc3ccccc3F)n2)[nH]c1=O [Compound 22]
1000 to 5000 nM

Please state recorded EC50 (tested on soluble guanylate cyclase (sGC) (Homo sapiens, UniProt Q02108+Q02153)) of O=c1[nH]c(-c2cc(-c3ccon3)n(Cc3ccccc3F)n2)nc(Cl)c1Cl [Compound 54]
5000 to 10000 nM

Please state recorded EC50 (tested on soluble guanylate cyclase (sGC) (Homo sapiens, UniProt Q02108+Q02153)) of Oc1nc(-c2cc(-c3ncco3)n(Cc3ccccc3F)n2)ncc1Sc1ccccn1 [Compound 7]
10 to 500 nM
